# Assayed target: Nitric oxide synthase, inducible (Homo sapiens)
# Sequence (P35228 whole entry): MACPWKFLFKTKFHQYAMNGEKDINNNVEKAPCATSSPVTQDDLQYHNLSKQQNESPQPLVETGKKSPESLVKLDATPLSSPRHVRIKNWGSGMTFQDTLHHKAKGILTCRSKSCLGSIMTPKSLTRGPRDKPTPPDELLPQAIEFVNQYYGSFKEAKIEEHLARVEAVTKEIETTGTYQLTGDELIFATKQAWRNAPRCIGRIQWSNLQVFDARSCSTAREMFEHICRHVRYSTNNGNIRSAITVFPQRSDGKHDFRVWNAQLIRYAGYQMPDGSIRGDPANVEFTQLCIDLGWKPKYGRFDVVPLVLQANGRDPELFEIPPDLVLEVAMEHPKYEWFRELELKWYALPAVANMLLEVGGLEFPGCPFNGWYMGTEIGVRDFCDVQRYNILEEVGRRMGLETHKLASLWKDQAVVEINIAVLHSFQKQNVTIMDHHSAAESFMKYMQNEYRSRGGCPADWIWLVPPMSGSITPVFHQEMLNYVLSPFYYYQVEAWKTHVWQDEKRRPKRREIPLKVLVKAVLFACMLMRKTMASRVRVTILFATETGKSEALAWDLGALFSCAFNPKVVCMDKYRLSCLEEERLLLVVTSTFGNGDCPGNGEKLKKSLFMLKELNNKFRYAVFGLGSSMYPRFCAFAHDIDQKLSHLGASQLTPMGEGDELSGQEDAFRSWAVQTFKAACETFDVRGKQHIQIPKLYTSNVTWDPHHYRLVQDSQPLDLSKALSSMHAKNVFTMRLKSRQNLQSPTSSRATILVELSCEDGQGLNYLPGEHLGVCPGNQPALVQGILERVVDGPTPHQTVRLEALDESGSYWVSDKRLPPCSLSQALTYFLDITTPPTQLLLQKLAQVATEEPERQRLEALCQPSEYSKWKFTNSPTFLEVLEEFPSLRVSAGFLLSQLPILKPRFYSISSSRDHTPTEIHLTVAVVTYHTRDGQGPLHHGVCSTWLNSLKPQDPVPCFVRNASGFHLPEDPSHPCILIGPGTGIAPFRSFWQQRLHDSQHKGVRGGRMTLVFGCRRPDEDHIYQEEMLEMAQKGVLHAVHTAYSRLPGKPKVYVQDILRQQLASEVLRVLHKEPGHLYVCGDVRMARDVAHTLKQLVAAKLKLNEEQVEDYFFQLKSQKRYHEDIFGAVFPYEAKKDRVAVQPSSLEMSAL
# Protocol description: Inhibition of iNOS in human A172 cells after 18 to 24 hrs
We label by threshold. Values of IC50 strictly beneath 200 nM are Met. Values of 200 nM and up are Not met.

- Smi: "Cc1cc(Oc2ccc3c(c2)OCO3)nc(Oc2ccc(-n3ccnc3)cc2Cl)n1"
  Assayed target: "Nitric oxide synthase, inducible (Homo sapiens)"
  Class label: "Met"
- Smi: "Clc1cc(Oc2ccc(-n3ccnc3)cc2)nc(Cc2ccc3c(c2)OCO3)n1"
  Assayed target: "Nitric oxide synthase, inducible (Homo sapiens)"
  Class label: "Not met"
- Smi: "Cc1cc(Oc2ccc3c(c2)OCO3)nc(Oc2ccc(-n3ccnc3)cc2F)n1"
  Assayed target: "Nitric oxide synthase, inducible (Homo sapiens)"
  Class label: "Met"
- Smi: "Cc1c(F)c(Oc2ccc(-n3ccnc3)cc2)nc(Oc2ccc3c(c2)OCO3)c1F"
  Assayed target: "Nitric oxide synthase, inducible (Homo sapiens)"
  Class label: "Not met"
- Smi: "Cc1cc(Oc2ccc3c(c2)OCO3)nc(Oc2ccc(-n3ccnc3)cc2C(F)(F)F)n1"
  Assayed target: "Nitric oxide synthase, inducible (Homo sapiens)"
  Class label: "Not met"
- Smi: "c1cn(-c2ccc(Oc3ccnc(Oc4ccc5c(c4)OCO5)n3)cc2)cn1"
  Assayed target: "Nitric oxide synthase, inducible (Homo sapiens)"
  Class label: "Met"
- Smi: "Cc1cnc(Oc2ccc(-n3ccnc3)cc2)nc1Oc1ccc2c(c1)OCO2"
  Assayed target: "Nitric oxide synthase, inducible (Homo sapiens)"
  Class label: "Met"
- Smi: "Cc1cc(Oc2ccc3c(c2)OCO3)nc(Oc2ccc(-n3ccnc3)cc2)n1"
  Assayed target: "Nitric oxide synthase, inducible (Homo sapiens)"
  Class label: "Met"
- Smi: "CN(C)CCCN(C)c1cc(Oc2ccc(-n3ccnc3)cc2)nc(Cc2ccc3c(c2)OCO3)n1"
  Assayed target: "Nitric oxide synthase, inducible (Homo sapiens)"
  Class label: "Not met"
- Smi: "c1cc(Oc2ccc(-n3ccnc3)cc2)nc(Oc2ccc3c(c2)OCO3)c1"
  Assayed target: "Nitric oxide synthase, inducible (Homo sapiens)"
  Class label: "Met"
- Smi: "c1cn(-c2ccc(Oc3cc(N4CCOCC4)nc(Cc4ccc5c(c4)OCO5)n3)cc2)cn1"
  Assayed target: "Nitric oxide synthase, inducible (Homo sapiens)"
  Class label: "Not met"
- Smi: "c1cn(-c2ccc(Oc3nccc(Oc4ccc5c(c4)OCO5)n3)cc2)cn1"
  Assayed target: "Nitric oxide synthase, inducible (Homo sapiens)"
  Class label: "Met"
- Smi: "c1cn(-c2ccc(Oc3cc(Oc4ccc5c(c4)OCO5)ncn3)cc2)cn1"
  Assayed target: "Nitric oxide synthase, inducible (Homo sapiens)"
  Class label: "Not met"
